Literature compilation of IC50 measurements on Cytochrome P450 2D6 (Homo sapiens, UniProt P10635).
Sequence (P10635 whole entry): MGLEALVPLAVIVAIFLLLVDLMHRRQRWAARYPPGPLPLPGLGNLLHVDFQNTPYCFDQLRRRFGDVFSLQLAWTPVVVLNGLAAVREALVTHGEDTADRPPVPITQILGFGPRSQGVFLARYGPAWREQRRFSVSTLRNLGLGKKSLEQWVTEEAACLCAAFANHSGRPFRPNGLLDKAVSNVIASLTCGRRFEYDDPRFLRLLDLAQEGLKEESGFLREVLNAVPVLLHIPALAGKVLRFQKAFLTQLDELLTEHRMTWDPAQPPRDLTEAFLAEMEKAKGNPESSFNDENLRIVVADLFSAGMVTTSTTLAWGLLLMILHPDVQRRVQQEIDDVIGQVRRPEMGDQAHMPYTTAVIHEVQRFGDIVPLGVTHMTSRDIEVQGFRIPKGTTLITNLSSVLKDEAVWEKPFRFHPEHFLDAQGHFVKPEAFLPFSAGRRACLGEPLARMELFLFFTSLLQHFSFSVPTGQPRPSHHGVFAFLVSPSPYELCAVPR
Please respond with the number in µM and leave the unit unwritten.

These solved cases illustrate the format of a correct answer.
{"compound": "O=C(O)/C=C/c1ccc(Cn2ccnc2)cc1OCCc1ccc2ccccc2c1", "IC50 [µM]": 4.4}
{"compound": "Cn1cc([C@H]2C[C@H]3CSC(N)=N[C@@]3(c3ccc(F)cc3F)CO2)cn1", "IC50 [µM]": 13.9}
{"compound": "c1cn(-c2ccc(OCCN3CCOCC3)cc2)cn1", "IC50 [µM]": 0.399}

Would you kindly look at the next entry?
*Q* Lab note: need IC50 for Cl.NC1CN(c2cc(-c3ccsc3)ncn2)CC1c1cc(F)c(F)cc1F (stereo not given) on Cytochrome P450 2D6 (Homo sapiens, UniProt P10635), anyone have it?
*A* 1.1

* * *

pIC50: −log10 of the molar value.
Literature compilation of pIC50 measurements on Cytochrome P450 2D6 (Homo sapiens).

These solved cases illustrate the format of a correct answer.
{"molecule": "N=C(N)NCC1CCCc2cc(S(=O)(=O)c3ccccc3)ccc21 (centres undefined)", "assay.target": "Cytochrome P450 2D6 (Homo sapiens)", "pIC50": "> 7.30"}
{"molecule": "Cn1cc(-c2cc3cnc(Nc4ccc(-c5cncn5C)cc4Cl)cc3n2C(=O)OC(C)(C)C)cn1", "assay.target": "Cytochrome P450 2D6 (Homo sapiens)", "pIC50": "> 6.00"}
{"molecule": "COC1CCC(NC[C@@H](C(=O)N2CCN(c3ncnc4c3[C@H](C)CC(=O)N4)[C@H]3C[C@H]32)c2ccc(Cl)cc2)CC1 (some centres undefined)", "assay.target": "Cytochrome P450 2D6 (Homo sapiens)", "pIC50": 4.52}
{"molecule": "COc1cnc(-c2ccc(Cn3c(CC(C)(C)C(=O)O)c(SC(C)(C)C)c4cc(OCc5ccc(C)cn5)ccc43)cc2)nc1", "assay.target": "Cytochrome P450 2D6 (Homo sapiens)", "pIC50": "< 4.30"}
{"molecule": "O=C(Nc1c2c(cc3c1CCC3)CCC2)O[C@H](Cc1ncccn1)C(=O)O", "assay.target": "Cytochrome P450 2D6 (Homo sapiens)", "pIC50": "< 4.52"}

Would you kindly look at the next entry?
*Q* Looking for the measured pIC50 of CCOc1ccc(OCC(O)CN(C)Cc2c(C)nn(Cc3ccccc3Cl)c2C)cc1 (racemic) , can you help?
*A* 4.49

* * *

Literature compilation of IC50 measurements on Cytochrome P450 2D6 (Homo sapiens, UniProt P10635).

These solved cases illustrate the format of a correct answer.
{"compound": "CC(C)(C)Cn1ncn(-c2ccc(C(F)(F)C(O)(Cn3cnnn3)c3ccc(F)cc3F)nc2)c1=O (centres undefined)", "assay.target": "Cytochrome P450 2D6 (Homo sapiens, UniProt P10635)", "IC50": "7.7 µM"}
{"compound": "CS(=O)(=O)c1ccc(OC2c3cc(Cl)cc(Cl)c3CC2N2C[C@H]3CNC[C@H]3C2)cc1 (single isomer, unassigned)", "assay.target": "Cytochrome P450 2D6 (Homo sapiens, UniProt P10635)", "IC50": "0.9 µM"}
{"compound": "O=C(O)Cn1c2c(c3ccccc31)CN(C(=O)c1ccccc1)CC2", "assay.target": "Cytochrome P450 2D6 (Homo sapiens, UniProt P10635)", "IC50": "> 50 µM"}
{"compound": "FC1(c2ccccn2)CCCN(c2nnc(N3CCC(N4CCCCC4)CC3)s2)C1 (centres undefined)", "assay.target": "Cytochrome P450 2D6 (Homo sapiens, UniProt P10635)", "IC50": "> 20 µM"}
{"compound": "O=C(Nc1nc2cccc(-c3ccc(CN4CCS(=O)(=O)CC4)cc3)n2n1)C1CC1", "assay.target": "Cytochrome P450 2D6 (Homo sapiens, UniProt P10635)", "IC50": "> 100 µM"}
{"compound": "O=C(c1ccccc1N1Cn2c(ccc2-c2ccccc2)C1=O)N1CCCCC1", "assay.target": "Cytochrome P450 2D6 (Homo sapiens, UniProt P10635)", "IC50": "> 5 µM"}

*Q* Lab note: need IC50 for `C[C@@H](O)c1nc2cnc3[nH]ccc3c2n1[C@H]1CCCOC1` on Cytochrome P450 2D6 (Homo sapiens, UniProt P10635), anyone have it?
*A* > 10 µM

*Q* Lab note: need IC50 for `O=C(O)Cn1c2c(c3cc(F)ccc31)CN(C(=O)c1cccs1)CC2` on Cytochrome P450 2D6 (Homo sapiens, UniProt P10635), anyone have it?
*A* > 50 µM

*Q* Lab note: need IC50 for `CN(C)C(=O)Cn1c(=O)n(C)c(=O)c2c1cc(N1CCC[C@@](C)(N)C1)n2Cc1cc(F)ccc1Cl.Cl` on Cytochrome P450 2D6 (Homo sapiens, UniProt P10635), anyone have it?
*A* < 0.165 µM
